Test: Brain to plasma partition coefficient, Kp of the compound in rat
Assay type: ADME, organism-based
Conditions: brain and plasma
Kp values, listed per item
Measure name: Kp

chem_smiles=CN(C)CCCN1c2ccccc2Sc2ccc(Cl)cc21 endpoint_value=8.5
chem_smiles=CN1CCN(C2=Nc3cc(Cl)ccc3Nc3ccccc32)CC1 endpoint_value=8.5
chem_smiles=Cc1nc2n(c(=O)c1CCN1CCC(c3noc4cc(F)ccc34)CC1)CCCC2 endpoint_value=8.5
chem_smiles=O=C1Cc2cc(CCN3CCN(c4nsc5ccccc45)CC3)c(Cl)cc2N1 endpoint_value=8.5
chem_smiles=OCCOCCN1CCN(C2=Nc3ccccc3Sc3ccccc32)CC1 endpoint_value=8.5
chem_smiles=O=C(CCCN1CCC(O)(c2ccc(Cl)cc2)CC1)c1ccc(F)cc1 endpoint_value=8.5
